# Lookup of reported EC50, Jurkat proliferation assay (apoptosis, MTT) keyed by entry
Molecular target: TRAIL R2 receptor on HCT-116 or Jurkat cells (UniProt O14763 56-440, limits assumed)
Experiment: cell-based or functional assay
Bridge positions count the residues as written; N and C are the ends.
endpoint_name: EC50, Jurkat proliferation assay (apoptosis, MTT)

binder | measurement
Ac-WDCLVDRPGRRQCVRLEK-NH2 (disulfide 3-13 (inferred); also: homodimer via diglycolic acid (DIG) linker, site not given here) [peptide homodimer based on the peptide monomer amino acid sequence of SEQ ID NO: 29, DIG linker] | 1300 to 1660 nM
Ac-WDCLDNRIGRRQCVKL-NH2 (disulfide 3-13; also: homodimer via DOD linker, site not given here) [peptide homodimer based on the peptide monomer amino acid sequence of SEQ ID NO: 19, DOD linker] | 2000 to 4410 nM
Ac-WDCLVDRPGRRQCVKLER-NH2 (disulfide 3-13 (inferred); also: homodimer via diglycolic acid (DIG) linker, site not given here) [peptide homodimer based on the peptide monomer amino acid sequence of SEQ ID NO: 31, DIG linker] | > 33000 nM
